The following sequences are shown together with reported protein stability index values.
# assayRemarks: protein stability index of a GFP-peptide fusion (yeast GPS) (PSI 1-4); higher = more stable; sorted into four equal gates, so the index is relative within each strain
# assaySetup: doa10∆

residueSequence | protein stability index
FKSTMLQVSEKDLFELE [ARP7] | 1.25
AFQLADGIHYILNHIGQ [PRP8] | 2.71
TVDVSSPTENGVFDPAS [RPL22A] | 3.06
NPSVKQGEVGAVFIVPK [SWP82] | 3.23

* * *

# assayRemarks: protein stability index of a GFP-peptide fusion (yeast GPS) (PSI 1-4); higher = more stable; sorted into four equal gates, so the index is relative within each strain
# assaySetup: san1∆

residueSequence | protein stability index
NAAGNTPDATKIKAILE [RPP2A] | 2.99
WYKVAKNVGNKSPEQCI [SWI3] | 3.07
HHDGKLWNLNAYRTDVI [PRP8] | 3.04
EFVDDYTVNVVDVFAMP [RPN11] | 2.91
TNSPQISVTRQVVLGGT [SMC2] | 3.03
DNDSLTDLESLSSGESN [SIR4] | 3.07
RRSKQLINLAKTRVGSV [RPC82] | 2.95

* * *

# assayRemarks: protein stability index of a GFP-peptide fusion (yeast GPS) (PSI 1-4); higher = more stable; sorted into four equal gates, so the index is relative within each strain
# assaySetup: ubr1∆

residueSequence | protein stability index
LCLMTWKEVMFDPSKDV [CDC53] | 3.09
DENPDLLGYTGIPTDKG [PRE8] | 2.28
SFSFGAPESMKSTASTA [YOR098C/NUP1] | 3.12
FPLCVHLVSNELEQLSS [RPL10] | 2.44
MKLVNFLKKLRNEQVTI [SMD1] | 2.5
ENLFSKEEVCQGMEGTV [YMR129W/POM152] | 2.65
YATKLSKFTKIPPTFDK [MED4] | 2.87
NKYANNDFANNLPKEGD [CSL4] | 2.4
LLERTREIHNEAESQLR [FAS2] | 2.54
GVWDVDNPLRQIPHFNN [BRR2] | 3.13
DENTSGKISKPRFLNKQ [PRP28] | 3.16
LNATKISPSAPSKDSFT [YAR002W/NUP60] | 3
TVNHSEKFPNDVKLLNP [RPP1] | 3
RRLHDENLMVQRTCLMT [YCS4] | 2.24
QQNIKFRRDFLLREYDI [YJL039C/NUP192] | 2.63
ASLTAARTAANSIYCPT [RPN6] | 2.49
NNAKLLTFMTCNSLHIP [ESC2] | 2.06
DEADKMIDLGFEDQVTN [PRP28] | 3.1
LFNKPPSTNAQNVNVPS [YOR098C/NUP1] | 3.12
TGDADEPELRVLSTEEI [RPO21] | 3.43
ITGNKIMRILKSNGLAP [RPS13] | 2.91
QKYNLLHVLPTLNSRAL [SNM1] | 1.56
RYSMSEQFPFYLHDNAS [IRR1] | 3.03
MNFNTPQQNKTPFSFGT [YJL041W/NSP1] | 2.95
VQVKVLGKYEFSKILPA [ESC2] | 1.83
LGKRSILAAAHRDAYSG [PRE2] | 2.85
KNGALVSNILSAFKFIH [YJL039C/NUP192] | 1.3
NTNNINNSSSGMNNASA [YGL172W/NUP49] | 3.22
LLCDKAQKNTQSYGGRP [PRE5] | 3.26
PIPVQGEIEIKPNEEEE [RPN13] | 2.67
TVIRGNSIISLEALDAI [SMX2] | 2.57
IQIDEETENSESIASSN [MCD1] | 2.76
ATMSVFLQRIDFQIDGN [RRI2] | 3.29
TFLPPLLLKLASPHASV [ECM29] | 1.41
IYRYKYKVMHQIRACKD [PRP8] | 1.99
RKRAHSLVSTQSSSSTR [REC8] | 2.92
VSPNDNNSANNNAHSSD [YMR153W/NUP53] | 2.56
ESAFENLMGNRNNHNSN [SNF12] | 3.44
FEVLAPKWERVFLFDIE [RRI2] | 2.52
DKQDGTAKPAFSFGAKP [YJL041W/NSP1] | 3.35
NLLLRELNVEKLNTFNL [SRP72] | 2.95
TEIENYLLENNQVGTDE [YDL116W/NUP84] | 2.84
FQKETNMKVTILHGSKS [PRP28] | 3.18
IDHSDESNRQSVIVDSK [ESC2] | 3.51
QNVNVPSAFNFTGNNST [YOR098C/NUP1] | 2.84
LDEDDTNDGIERYSDKY [RPC31] | 3.26
EIGLLPEDALVNDFSDI [SMC3] | 3.3
YLIVAGVDPTGSHLFSI [PUP1] | 2.09
MSNKVKTKAMVPPINCI [SME1] | 2.57
DGLGNVVDFTSLPEELK [YMR129W/POM152] | 3.42
INLNVDDDILIIRPILG [SRB4] | 3.21
ENYDAKIELEKKEKWAR [YIL149C/MLP2] | 3.12
TKCSTVVKASELDQFWQ [SRP14] | 1.72
KFLNFRPPNGIKNFKSL [SSN2] | 1.79

* * *

# assayRemarks: protein stability index of a GFP-peptide fusion (yeast GPS) (PSI 1-4); higher = more stable; sorted into four equal gates, so the index is relative within each strain
# assaySetup: ubr1∆
Rule: MET for protein stability index not less than 3, NOT MET for anything less.

residueSequence | category
LINLKISPLMKSQYNMV [SRB8] | NOT MET
VKCEELSNTLACYRTIM [RRP40] | NOT MET
IDYLQRNDKTLELMDSK [POP1] | MET
DDSDNVMSSDDENAPVA [PRE10] | MET
KRKYDEITHPPSTTDDE [SWI3] | MET
LDPLARVSKDKKSGSLT [FAS2] | MET
HGINLQNKKNLKWVAVV [SSN2] | MET
DICQIDTNAPVAATITS [SRB8] | NOT MET
YKPLIEERMGQIENLNE [SMC4] | MET
DDINKAKAVWENIIIVG [ARP9] | NOT MET
VGSPLTVSILQESSSLR [POP8] | MET
LVESVDRFKPNLDIAKD [MED4] | NOT MET
TQRIMTNVIAFAFWNLL [YLR018C/POM34] | NOT MET
GPVGKECADLWPRVASN [RPL23A] | MET
KLYKTPIPIPAFADRLG [PRE10] | NOT MET

* * *

# assayRemarks: protein stability index of a GFP-peptide fusion (yeast GPS) (PSI 1-4); higher = more stable; sorted into four equal gates, so the index is relative within each strain
# assaySetup: doa10∆
readoutType: protein stability index

residueSequence | result
SYNNTGISDDENDEEDI [RRP4] | 2.85
TVQNEILGDLGKEFGTT [FAS2] | 3.03
VTDLSGKETIARVTGGM [RPS14B] | 3.03
QQQQDLQQQQQVVTTVA [SNF6] | 1.55
LAFDKLNVPVFQIVIEP [ARP7] | 2.12
LNSMEKDRISHEVVQDD [PCI8] | 2.61
TLDKPNAEATKEEFSSA [CSE2] | 2.99
RALKVRNAQAQREAAAE [RPS6A] | 3
GMPNMPGMPNMPGMPNM [SRP54] | 3.37
EKSLLPKIETNVYVGMT [ISW2] | 2.92
WVQLVQIIVTDGKLEPS [YJL039C/NUP192] | 1.27
SSSKQQSRLFINELVLE [SMC4] | 3.02
KKPRKPRQTKKAKAQAQ [PGD1] | 3.2
TVSILQESSSLRLLEVT [POP8] | 2.2
NNNHKDKKLLRRLLNLY [SWI1] | 2.88
HTIFSDVCKTRFNHLVT [YML031W/NDC1] | 2.27
EDSENPSDWQRNSFIRD [ITC1] | 3.1
GHVGSVQISNIPDIGDL [PRP8] | 3.11
AKSDETKQASSFSFLNR [YLR335W/NUP2] | 3.35

* * *

# assayRemarks: protein stability index of a GFP-peptide fusion (yeast GPS) (PSI 1-4); higher = more stable; sorted into four equal gates, so the index is relative within each strain
# assaySetup: doa10∆
readoutType: protein stability index

residueSequence | recordedNumber
KTLIGLQGIVIWDSQKF [POP4] | 1.7
LRKNKLGYARFILLDRL [SMC4] | 1.15
ILCIFEGEKCHPQDFGN [SEC65] | 2.13
LQAIDLLENPNCFFDVI [DIS3] | 2.48
SLASCLRSTEYSKSFEQ [POP1] | 2.58
TRISSQFEKSRKVSGPR [RET1] | 2.94
LVILKPDLNIDRNNSTN [SIN4] | 2.73
QLENADTGTLDTKSVVG [RPN2] | 3.09
NITDYETHPDNSNKQAV [BRR2] | 2.81
NSSKPAFSFGAKSNEDK [YJL041W/NSP1] | 3.19
IEIEDEKVSSVLSALEG [RPP2A] | 2.88
ADVSIKSILQEIRRSLS [POP5] | 1.59
EDGTIESYNQNDWKLET [SIN4] | 3.29
QVLVTTNQDGLKFVKVR [RPB2] | 1.41
NVMLNIYPRTVIDIEIH [SKI6] | 1.35
TRAKIGGLNDPRLGSID [RPO21] | 3.03
LTSPAFGPHVDVNDVLT [GRR1] | 3.4
RRRKGISTGGFMSNDGP [SNU114] | 1.46
NINEVKKASDLVDTPSN [NUT1] | 3.14
DSLTQNNNNAPIIIYGT [YOR098C/NUP1] | 2.69
YVIKALQSLTSKGYVKT [RPS10A] | 2.88
LGAIEQILIFAADTSIV [YJL039C/NUP192] | 1.47
YATKLSKFTKIPPTFDK [MED4] | 3.08
LLDKYGKTGLSNMILGS [YML103C/NUP188] | 2.34
EFSPRLHNIWSNGLLSI [YML103C/NUP188] | 1.85
KLAKNLQIGDVVERHLE [RPO31] | 3.25
DEVNDRSDISDSEGGLF [PCI8] | 3.33
PIPFEFQAVIQKSINHP [SNF2] | 2.67
IRAIRKVISEILTKEVQ [RPS1A] | 1.71
VAIGNTYGFLTPNLWAE [RPS2] | 2.26
TADKIRIHAKNFEAALF [GAL11] | 2.13
VYFGDENKVMLPRCSKE [RRI2] | 3.24
PTLVRSVISGNLSLYEA [CSN12] | 2.92
